# Target system: Dihydroorotate dehydrogenase (quinone), mitochondrial (Plasmodium falciparum (isolate 3D7))
# Method notes: PfDHODH enzyme inhibitors, primary screen, biochemical, C-terminal His tag, absorbance 600 nm (AID 1175);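 also: recombinant parasite enzyme with a five histidine tag at its C terminus; test concentration not given here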
# Test settings: DCIP absorbance 600 nm, higher = more signal, called active from +8 up or from −8 down
Recorded composite z-score, one value per entry.
# respond with the number and nothing more

Consider the reported composite z-score for these compounds:
Compound	composite z-score
CN1C(=O)C2C=CC(C(O)Cc3ccccc3)N(N(c3ccccc3)c3ccccc3)C2C1=O (stereo not drawn)	-0.443
COc1cc(OC)c(C(O)C2C=CC3C(=O)N(c4ccccc4)C(=O)C3N2Nc2ccc(C#N)cc2)cc1Br (stereo not drawn)	1.49
CC1CC/C=C\[C@H]2OC34C=CCN(c5ccc6ccccc6c5)C(=O)[C@H]3N(C(CO)C(C)C)C(=O)[C@@H]4C2C(=O)O1 (stereo partly drawn)	-2.17

Turning to the following compound.
# get_value(readout='composite z-score', item= COCCOC(=O)N1C(=O)[C@@]2(c3cc(C#Cc4ccc(OC)cc4)ccc31)[C@H](C(=O)N1CCN(c3ncccn3)CC1)[C@H]1C(=O)O[C@H](c3ccccc3)[C@H](c3ccccc3)N1[C@@H]2c1ccccc1OCCO ) 0.27

###

# Tested on: Human papillomavirus type 1a E7 protein (residues 1-88)
# Method notes: HPV1a E7 small-molecule binders, primary screen, biochemical, small-molecule microarray, residues 1-88, 635 nm (AID 1129)
# Test settings: small-molecule microarray binding, fluorescence 635 nm; higher = more signal
Outcome measure: composite z-score

In the examples that follow, each entry is paired with its recorded composite z-score.
>>> print(df.to_string())
                                   molecule  result
0  CCOC(=O)C[C@H]1[C@H](OC(=O)c2ccccc2-c2ccccc2)[C@@H](NC(=O)c2ccc3ccccc3n2)c2cc(OCCCO)ccc2N1C(=O)c1ccc2ccccc2n1   0.374
1  CCCC=C(CCC)[C@@H](NP(=O)(c1ccccc1)c1ccccc1)c1ccc(C(F)(F)F)cc1   0.811
2  O=C(NC1CC1)[C@@H]1c2ccccc2C(=O)N(Cc2ccccc2)[C@H]1c1ccc(CO)cc1   0.802

Now for the molecule whose composite z-score we want.
Looking for the measured composite z-score of CC(C)N1CC=CC23O[C@@H]4C=CCOC(=O)[C@@H]4[C@H]2C(=O)N(C(C)CO)[C@@H]3C1=O (some centres undefined) , can you help? -0.915

###

# Target system: Streptavidin (Streptomyces avidinii)
# Method notes: streptavidin binders on small-molecule microarray, primary screen, artefact control for SMM compound annotation, biophysical, 635/667 nm fluorescence (AID 1147);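 also: signal reflects streptavidin binding to arrayed compounds as a control protein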
# Test settings: streptavidin binding, higher = more signal
This listing pairs compounds with measured composite z-score.
// no unit string in output, number only

Example cases with answers are listed next.
Chemical smiles	Quantitative result
COC(=O)[C@@]1(Cc2ccc(OC)cc2)[C@H]2c3cc(C(=O)N(C)C)n(CCc4c[nH]c5ccc(O)cc45)c3C[C@H]2CN1C(=O)c1ccccc1	1.65
COc1ccc([Si](C)(C)[C@H]2[C@H](CCn3cc(CCO)nn3)O[C@@]3(C(=O)N(Cc4ccc(N5C(=O)c6cccc7cccc5c67)cc4)c4ccccc43)[C@@H]2C)cc1	0.798

Next:
What is its composite z-score for Streptavidin (Streptomyces avidinii)? Entry: C=CCNC(=O)[C@@H]1[C@H]2C(=O)O[C@H](c3ccccc3)[C@H](c3ccccc3)N2[C@H](c2ccc(OCCO)cc2)[C@@]12C(=O)N(C(=O)OCCOC)c1ccc(C#CC3=CCCCC3)cc12 0.902

###

# Method notes: fission yeast growth modulation, primary screen, strain 972, OD600, 24 h, no modulator (AID 1090);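 also: basal condition with compound alone and no growth modifier present; test concentration not given here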
# Test settings: S. pombe 972 growth, higher = more signal, called active from +8 up or from −8 down
Recorded z-score for the following compounds
Returns: the value as a bare number; no unit string appended.

Tell me the measured z-score of CCOC(=O)C[C@H]1[C@H](OC(=O)c2ccc(C(=O)c3ccccc3)cc2)[C@@H](NC(=O)c2ccc3ccccc3c2)c2cc(OCCCO)ccc2N1C(=O)c1ccccc1 , please. -0.681

// same read-out, input: CN1C(=O)C2C=CC(C(O)C3CCCCC3)N(N3CCCCC3)C2C1=O (stereo not drawn) 0.788

What would you report for [N-]=[N+]=NCc1ccccc1C[C@@]1(C(=O)N2CCCCC2)N=C(c2ccc(OCCCO)cc2)O[C@@H]1c1ccccc1N=[N+]=[N-] ? 0.832

Next record, please: CC(C)CN1C(=O)[C@@]2(Cc3ccccc31)c1ccccc1C(=O)N(Cc1ccccc1C(F)(F)F)[C@H]2c1ccc(CO)cc1 -0.147

###

# Method notes: small-molecule microarray binders of probe aCHRDL2, primary screen, biochemical, biotinylated probe, 635/667 nm fluorescence (AID 1100)
# Test settings: higher = more signal
Label scheme for composite z-score: lower than 0.4 is 0 (no), 0.4 and above is 1 (yes).

Compound	Assigned label
Cc1ccc(F)cc1S(=O)(=O)N[C@@H]1CCN(Cc2ccc(OC(C)C)cc2)C1	0 (no)
CN(C)CCCCNC(=O)[C@H]1C[C@H]2C(=O)N[C@@H](CCCCN(C)C)C(=O)N2[C@H]1c1cccc(OCCO)c1	0 (no)
COc1cc2c(cc1OC)CN(C(=O)[C@H]1[C@@H]3C(=O)O[C@@H](c4ccccc4)[C@@H](c4ccccc4)N3[C@@H](c3ccc(OCCO)cc3)[C@]13C(=O)Nc1ccc(C#CCCO)cc13)CC2	0 (no)
[N-]=[N+]=NCc1ccccc1C[C@@]1(C(N)=O)N=C(c2ccc(OCCCO)cc2)O[C@@H]1c1ccccc1CN=[N+]=[N-]	0 (no)
C=CC[C@]1(C(=O)N(C)C)N=C(c2ccc(OCCCO)cc2)O[C@H]1c1ccccc1N=[N+]=[N-]	1 (yes)
COc1cc2c(cc1O)C(C)N(Cc1cc3c(cc1Br)OCO3)CC2 (configuration not stated)	1 (yes)
COC1(C)CN(Cc2ccccc2Br)[C@H](/C=C/c2ccccc2)[C@H](Cc2ccccc2)O1 (some centres not stated)	0 (no)
C=C(CCCC)/C(=C/C[C@@H](OC(C)=O)c1ccc(CO)o1)c1cc(C(=O)OC)ccc1OC	0 (no)

Please check the record O=C1NC(=O)C2C1C=CC(C(O)c1cc(C(F)(F)F)cc(C(F)(F)F)c1)N2Nc1ccc(Cl)cc1Cl (configuration not stated) and state if its composite z-score is at or above 0.4. 1 (yes)

Proceed to C=CC[C@H](OC(=O)Nc1ccc(OC)cc1)c1ccc(O)c2ccccc12 0 (no)

How about this compound: C[n+]1ccc(CCCO)cc1 0 (no)

Now try NC(=O)NCC#Cc1ccc2c(c1)[C@]1(C(=O)N2)[C@H](c2ccc(O)cc2)N2[C@H](c3ccccc3)[C@H](c3ccccc3)OC(=O)[C@H]2[C@@H]1C(=O)Nc1nc2ccccc2s1 . 1 (yes)

How about this compound: CC1CC/C=C\[C@H]2OC34C=CCN(c5ccc6ccccc6c5)C(=O)[C@H]3N(C(CO)C(C)C)C(=O)[C@@H]4C2C(=O)O1 (some centres not stated) 1 (yes)

Also CN(C)CCCNC(=O)[C@@H]1c2ccccc2C(=O)N(Cc2ccc(OC(F)(F)F)cc2)[C@H]1c1ccc(CO)cc1 ? 1 (yes)

Lookup C=C(CCCC)C(=O)CC[C@@H](OC(=O)c1cccnc1)c1ccccc1OCCO 1 (yes)

How about CCOC(=CC(=O)OC)CC(O)c1cccc(Cl)c1 (configuration not stated) ? 1 (yes)

Repeat with COCCCNC(=O)[C@@H]1c2ccccc2C(=O)N(Cc2ccccc2C(F)(F)F)[C@H]1c1ccc(CO)cc1 1 (yes)

###

# Target system: NADPH oxidase 5 (Homo sapiens)
# Method notes: NOX5-dependent H2O2 signal modulators, primary screen, NOX inhibitor project, cell-based, HEK293-NOX5, Amplex Red fluorescence (AID 1161)
# Test settings: HEK293-NOX5, ionomycin, 45 min, higher = more signal
Response key: 1 (yes) means z-score >= -0.3; 0 (no) means z-score < -0.3.

Check out these entries, answers already filled in.
Compound	Target system	Assigned label
COCC(=C=CC[C@H](O)c1ccc(OCCO)cc1)C[C@H](O)COCc1ccccc1	NADPH oxidase 5 (Homo sapiens)	0 (no)
CC(C)(C)OC(=O)CC[C@@]1(C(=O)O)N=C(c2ccc(OCCCO)cc2)O[C@@H]1c1ccccc1CN=[N+]=[N-]	NADPH oxidase 5 (Homo sapiens)	1 (yes)
O=C1OC[C@@H](c2ccccc2)N2CC(/C=C/c3ccccc3)=CC12 (some centres not stated)	NADPH oxidase 5 (Homo sapiens)	1 (yes)
C[C@]12C(=O)N(CCCCCCO)[C@@H]3C(=O)N(c4ccc(Cl)cc4)CC=CC31O[C@@H]1/C=C\CCCOC(=O)C12 (some centres not stated)	NADPH oxidase 5 (Homo sapiens)	1 (yes)
COc1ccc(C(O)C2C=CC3C(=O)N(c4ccccc4)C(=O)C3N2Nc2ccc(C#N)cc2)c2ccccc12 (configuration not stated)	NADPH oxidase 5 (Homo sapiens)	0 (no)

Answer whether z-score of CCOC(=O)C1=CC[C@@H](c2ccccc2C(F)(F)F)N(S(=O)(=O)c2ccc(C)cc2)C1 is greater than or equal to -0.3. 0 (no)

Another compound to look at: CN(C)CCCCNC(=O)[C@H]1C[C@H]2C(=O)N3CCC[C@H]3C(=O)N2[C@H]1c1ccc(O)cc1 0 (no)

Moving on to CC(C)C(O)C1C=CC2C(=O)N(C)C(=O)C2N1Nc1ccccc1 (configuration not stated) 0 (no)

Try this compound too: CC(C)OC(=O)CC(=O)CC(O)c1cccc(C#N)c1 (configuration not stated) 1 (yes)

One more compound: C[C@H]1C2=C3C(CC[C@H]4C(OCc5ccc(F)cc5C(F)(F)F)OC[C@](C)([C@@H]34)N(C(=O)OC(C)(C)C)C2)C(CO)C1CO (some centres not stated) 0 (no)

Now consider C=C(CCCC)C(=O)CC[C@@H](OC(=O)c1ccccc1-c1ccccc1C(=O)O)c1cccc(OCCO)c1 and answer again. 0 (no)

Likewise for CC=CC(O)C1C=CC2C(=O)N(C)C(=O)C2N1N1CCCCC1 (configuration not stated) ? 0 (no)

Thanks! And Cc1ccc(S[C@]2(C(=O)O)CC(=O)N(Cc3ccccc3Cl)[C@@H]2c2ccc(CO)cc2)cc1 ? 1 (yes)
